Measured values drawn from ChEMBL document CHEMBL1201862 for this set.

system: OVCAR-5; test: NCI tumour cell line growth inhibition, 48 h
Calls of active or inactive are those of the source. No stated cut-off is given here; in the data, active = GI50 up to about 1.1 µM and inactive = higher.
Classes used: T for active, F for inactive

compound	qualitative label
C[C@@H]1CCC([C@@H](C)[C@H]2CC[C@H]3[C@@H]4CC[C@H]5C[C@@H](O)CC[C@]5(C)[C@H]4CC[C@]23C)=NC1	F
CCCCNC(=NC#N)NCCCC	F
CN(C)C(=O)OC(Cn1cncn1)c1ccc(Cl)cc1Cl (centres undefined)	F
S=C(N1CCN(c2ccccc2)CC1)N1CCN(c2ccccc2)CC1	F
Cn1cnc2c1c(=O)n(CCNCCO)c(=O)n2C	F
CC(C)c1c(O)ccc2c1CCC1C(C)(C)CCCC21C (centres undefined)	F
Nc1nc(N)c(-c2ccccc2)c(C(=O)Nc2ccc(Cl)c(Cl)c2)n1	F
COc1cc(C2S/C(=C/c3ccccc3)C(=O)N2c2cccc([N+](=O)[O-])c2)cc(OC)c1OC (centres undefined)	F
CN(C)CCCNc1c2ccccc2nc2cccc([N+](=O)[O-])c12	T
COC(=O)C1=C(CCC[C@H](C)O[Si](C)(C)C(C)(C)C)NC(=O)N2[C@@H](CCO)CC[C@H]12	F
CC(=O)OCC1OC(N2C(C)=C(C(C)=O)C(c3ccc(Cl)cc3)C(C#N)=C2S)C(OC(C)=O)C(OC(C)=O)C1OC(C)=O (centres undefined)	F
c1ccc2c(c1)/C(=N\NC1=NCCN1)c1nc3ccccc3nc1-2	F
Cn1c2ccccc2n2c(=O)c3cc([N+](=O)[O-])ccc3c(C#N)c12	F
O=C1/C(=C/c2ccccc2)CN(C(=O)OCc2ccccc2)C/C1=C\c1ccccc1	F
CC(C)[Si]1(C(C)C)OCC2OC(N3C(=O)NC(=O)C[C@@H]3C(O)c3ccccc3)CC2O[Si](C(C)C)(C(C)C)O1 (some centres undefined)	F
CN(CCCCCl)P(=O)(OCc1ccc([N+](=O)[O-])o1)OC[C@H]1O[C@@H](n2cc(F)c(=O)[nH]c2=O)C[C@@H]1O (some centres undefined)	F
NS(=O)(=O)c1ccc(NNc2c3ccccc3nc3c(C(=O)Nc4ccc(S(=O)(=O)Nc5ncccn5)cc4)cccc23)cc1	F
COC(=O)N/N=C(/c1nc2ccc([N+](=O)[O-])cc2nc1O)C(O)c1ccc(OC)c(OC)c1 (centres undefined)	F
COC(OC)(c1ccccc1)C(Br)Br	F

---

test system: 786-0; experiment: NCI tumour cell line growth inhibition, 48 h
Active and inactive are the calls of the source. Rule as the data show it: active = GI50 up to about 1.1 µM and inactive = higher.
Classes used: y = active, n = inactive

molecule	qualitative label
CC(=O)OCC1OC(N2C(C)=C(C(C)=O)C(c3ccc(Cl)cc3)C(C#N)=C2S)C(OC(C)=O)C(OC(C)=O)C1OC(C)=O (stereo not given)	n
COc1ccc2c(c1)C(=O)CC1c3cnccc3C(=O)N21 (stereo not given)	n
CN(C)C(=O)OC(Cn1cncn1)c1ccc(Cl)cc1Cl (stereo not given)	n
CCN(CC)C(=S)SNCCc1ccc(S(N)(=O)=O)cc1	n
CC(=O)C(=C(I)I)c1ccccc1	n
CC(C)=CC1CC(=[N+]=[N-])C(=O)C1(C)C (stereo not given)	n
CC(=O)N1C(OC(C)C)CC(C)N1c1ccccc1 (stereo not given)	n
NS(=O)(=O)c1cc(Br)c(/N=N\c2ccc(O)c3ncccc23)c(Br)c1	n
O=P(O)(Cc1ccccc1)c1ccccc1-c1ccccc1	n
Cc1ccc(-c2c(C#N)c(O)n(NS(=O)(=O)c3ccccc3)c(=O)c2C#N)cc1	n
COc1ccc2c(c1)CC[C@@H]1[C@@H]2CC[C@]2(C)/C(=N/OCCN3CCCC3)CC[C@@H]12	n
CN1CCOC1(C)CO (stereo not given)	n
COc1ccc2c(c1)C1OCCNC1CC2 (stereo not given)	n
O=C1c2ccccc2C(=O)c2sc(Nc3ccccc3Cl)nc21	n
C=C1CC2CCCC12C=O (stereo not given)	n
O=C1CC2C(=O)C1C(C(=O)O)C2C(=O)O (stereo not given)	n
CCC[N+](C)(C)CCCNC(=O)c1c(O)c2ccccc2[nH]c1=O	n
O=C1C=C(Nc2ccc(Cl)cc2C(=O)c2ccccc2)c2ccccc2C1=O	n
O=C1OC[C@@H]2[C@@H](O)CCCCCN12	n
O=C1c2ccccc2C(=O)c2c(Nc3cc4c5c(ccc6c7ccc8c9c(cc(Nc%10cccc%11c%10C(=O)c%10ccccc%10C%11=O)c(c3c56)c97)-c3ccccc3C8=O)C(=O)c3ccccc3-4)cccc21	n
Cc1ccc(/C=C2\CN(C)CC3C2=NC(=S)NC3c2ccc(C)cc2)cc1 (stereo not given)	n
NCCC1CN(C(=O)OCc2ccccc2)c2ccccc21 (stereo not given)	n
OCC(O)C(O)C(C=NNc1ncnc2ccc(Br)cc12)=NNc1ncnc2ccc(Br)cc12 (stereo not given)	y
Cn1cnc2c1c(=O)n(CCNCCO)c(=O)n2C	n
COC1/C=C/O[C@@]2(C)Oc3c(C)c(O)c4c(O)c(cc(O)c4c3C2=O)NC(=O)/C(C)=C\C=C\[C@H](C)C(O)[C@@H](C)[C@@H](O)[C@@H](C)[C@H](OC(C)=O)[C@@H]1C (stereo not given in full)	n
COC(=O)c1ccccc1CC1Cc2ccc3c(c2C1=O)CCC3 (stereo not given)	n
C/C(=N\NC(=O)C(N)=O)c1c(O)cc(C)oc1=O	n
C=C(O)c1ccccc1C#Cc1ccccc1C(=O)OC	n
CC(C)/C=N\n1c(N)c(C#N)c(C#N)c1C(C)C	n
C[C@@H]1CCC([C@@H](C)[C@H]2CC[C@H]3[C@@H]4CC[C@H]5C[C@@H](O)CC[C@]5(C)[C@H]4CC[C@]23C)=NC1	n
COc1ccc(/C=C/c2cc(OC)c(O[Si](C)(C)C(C)(C)C)c(OC)c2)cc1	n
Cc1cc(N(CCC#N)CCC#N)ccc1/C=C1\SC(=S)NC1=O	n
O=C1C(c2ccccc2)=C(c2ccccc2)C(c2ccc(-c3ccc(C4=C(c5ccccc5)C(=O)C(c5ccccc5)=C4c4ccccc4)cc3)cc2)=C1c1ccccc1	n
CC1(c2ccc(Cl)cc2)N=C(NCCO)c2ccccc21 (stereo not given)	n
COC[C@@H]1[C@H]2OC(C)(C)O[C@H]2C(=O)N1C(=O)c1ccc(OC)cc1	n
O=S(=O)(O)c1ccc(Nc2ccnc3ccccc23)cc1	n
COc1ccc(OC)c(C2CCc3nc4nc(N)nc(N)c4cc3C2)c1 (stereo not given)	n
CC(=O)NC1C(OCc2ccccc2)OC(CO)C(O)C1OC(C)C(=O)N[C@@H](C)C(=O)N[C@H](CCC(=O)OCCNc1c2ccccc2nc2cccc([N+](=O)[O-])c12)C(N)=O (stereo not given in full)	y
O=c1c2ccccc2nc(-c2cccc(Cl)c2)n1NC1OC(CO)C(O)C(O)C1O (stereo not given)	n
COc1cc2c3c(cc(Cl)nc3c1OC)C(=O)C(=O)N2	n

---

Overview of reported GI50 across a group of molecules:
test system: MOLT-4; assay: NCI tumour cell line growth inhibition, 48 h
The source made the active and inactive calls. Cut-off read from the data, not from the text of the source: active = GI50 up to about 1.1 µM and inactive = higher.

molecule	GI50
CC(C)C1OC(=O)C=C1Sc1ccccc1 (stereo not drawn)	> 100 µM (inactive)
O=C(O)c1cnc2cc(OCc3ccccc3)ccc2c1O	31.2 µM (inactive)
COC1OC(C)C(OC(=O)C(C)(C)C)C(OS(=O)(=O)c2ccc(C)cc2)C1OS(=O)(=O)c1ccc(C)cc1 (stereo not drawn)	> 100 µM (inactive)
O=C(/C=C/c1ccccc1)c1ccccc1 [CHALCONE]	0.938 µM (active)
CO[C@H]1C=CO[C@@]2(C)Oc3c(C)c(O)c4c(O)c(c(CN5CCN(C)CC5)c(O)c4c3C2=O)NC(=O)/C(C)=C\C=C[C@H](C)[C@H](O)C(C)[C@@H](O)C(C)[C@H](OC(C)=O)[C@@H]1C (stereo partly drawn)	5.87 µM (inactive)
COc1ccc2c(c1)CC[C@@H]1[C@@H]2CC[C@]2(C)/C(=N/OCCN3CCCCC3)CC[C@@H]12	3.06 µM (inactive)
C/C=C1/CN2CC[C@@H]3c4ccccc4N4[C@H](C(=O)OC)[C@H]1C[C@H]2[C@]34/C=C/C1=COC[C@@H]2[C@H]1C[C@H]1c3c(c4ccccc4n3C)C[C@@H]2N1C	4.02 µM (inactive)
OCC1OC(NCCNCCNC2OC(CO)C(O)C(O)C2O)C(O)C(O)C1O (stereo not drawn)	> 100 µM (inactive)

---

system: PC-3; assay: NCI tumour cell line growth inhibition, 48 h
Calls of active or inactive are those of the source. Rule as the data show it: active = GI50 up to about 1.1 µM and inactive = higher.
Classes used: yes (1) for active, no (0) for inactive

compound	assayed system	qualitative label
CC(NNC(=O)c1cc[n+]([BH2-]C#N)cc1)c1cccc(F)c1 (centres undefined)	PC-3	no (0)
CNC(=O)/C=C/C1=CN2C(=O)c3ccc(C)c(O)c3NC(OC)C2C1 (centres undefined)	PC-3	yes (1)
c1cc2nnc1SCCSCCSCCSc1ccc(nn1)SCCSCCSCCS2	PC-3	no (0)
CCOC(=O)C1=C(O)C2C3CC4C2C(O)=C(C(=O)OCC)C2C1C3C42 (centres undefined)	PC-3	no (0)
CCC/C=C/c1cc2c(cc1O)CC[C@@H]1[C@@H]2CC[C@]2(C)[C@@H](O)CC[C@@H]12	PC-3	no (0)
CC(C)/C=N\n1c(N)c(C#N)c(C#N)c1C(C)C	PC-3	no (0)
CC(C)(C)c1cc(CC2C(=O)c3ccccc3C2=O)cc(C(C)(C)C)c1O	PC-3	no (0)
O=C1c2ccccc2-c2nnc(-c3ccc(Cl)cc3)cc21	PC-3	no (0)
Cn1c(SCc2c[nH]c3ccccc23)nnc1-c1ccc(Cl)cc1Cl	PC-3	no (0)
Cc1cc(O)cc(O)c1/N=N/c1ccc([N+](=O)[O-])cc1	PC-3	no (0)
Cc1ccc([N+](=O)[O-])cc1S(=O)(=O)Nc1ccc(C2=NOC(c3ccccc3)C2)cc1 (centres undefined)	PC-3	no (0)
COC(OC)(c1ccccc1)C(Br)Br	PC-3	no (0)
CCc1c(O)cc(=O)oc1-c1ccc(OC)c(OC)c1	PC-3	no (0)
CC(=O)OCc1nc(C#N)c(N)o1	PC-3	no (0)
O=C(/C=C(\Nc1ccccc1O)c1ccccc1)C(=O)NC12CC3CC(CC(C3)C1)C2	PC-3	no (0)
O=C1N=C(c2ccccc2)OC1C(=O)c1ccccc1 (centres undefined)	PC-3	no (0)
Cc1nc2nnc(CCCCCCCCc3nnc4nc(C)[nH]n34)n2[nH]1	PC-3	no (0)
CCOC(=O)C1(C/C=C\CBr)CCCCCCCCCCC1=O (centres undefined)	PC-3	no (0)
NC(CCCCNC(=O)C(Cc1ccccc1)NC(=O)OCc1ccccc1)C(=O)NC(CCCCNC(=O)C(Cc1ccccc1)NC(=O)OCc1ccccc1)C(=O)NC(CCCCNC(=O)C(Cc1ccccc1)NC(=O)OCc1ccccc1)C(=O)NC(CCCCNC(=O)C(Cc1ccccc1)NC(=O)OCc1ccccc1)C(=O)NC(CCCCNC(=O)C(Cc1ccccc1)NC(=O)OCc1ccccc1)C(=O)NC(CCCCNC(=O)C(Cc1ccccc1)NC(=O)OCc1ccccc1)C(=O)O (centres undefined)	PC-3	no (0)
